# target.entity: Nuclear receptor subfamily 1 group I member 2 (Homo sapiens) (UniProt O75469)
# assay: Human pregnane X receptor (PXR) activation by small molecules, qHTS assay (AID 1346985); also: nearly all actives have a fitted effect of over 40% in size
# condition.context: DPX-2 HepG2 CYP3A4-luciferase, 24 h; series mostly up to 38.3 µM
Records with an inconclusive call do not appear. Activity calls are given as the source filed them. Calls follow the shape of the dose curve; as a rule, active = well fitted activation curve with a large enough effect in the repeat runs; inconclusive = weak or mixed curves; inactive = flat fitted curve, though single readings scatter.
Labels: active, inactive

>  <compound>
C[N+]1(C)[C@@H]2CC[C@H]1CC(OC(=O)c1c[nH]c3ccccc13)C2 (some centres not stated)

>  <target.entity>
Nuclear receptor subfamily 1 group I member 2 (Homo sapiens) (UniProt O75469)

>  <cat>
inactive

$$$$
>  <compound>
CCCCNCC(O)c1ccc(O)cc1 (configuration not stated)

>  <target.entity>
Nuclear receptor subfamily 1 group I member 2 (Homo sapiens) (UniProt O75469)

>  <cat>
inactive

$$$$
>  <compound>
F/C(COc1ccc2c(c1)[nH]c1ccccc12)=C1/CN2CCC1CC2

>  <target.entity>
Nuclear receptor subfamily 1 group I member 2 (Homo sapiens) (UniProt O75469)

>  <cat>
active

$$$$
>  <compound>
O=C1Nc2ccc(Cl)cc2C(c2ccccc2Cl)=NC1O (configuration not stated)

>  <target.entity>
Nuclear receptor subfamily 1 group I member 2 (Homo sapiens) (UniProt O75469)

>  <cat>
inactive

$$$$
>  <compound>
c1cc2c(c(NC3=NCCN3)c1)CCCC2

>  <target.entity>
Nuclear receptor subfamily 1 group I member 2 (Homo sapiens) (UniProt O75469)

>  <cat>
inactive

$$$$
>  <compound>
CC(=O)OC1CN2CCC1CC2 (configuration not stated)

>  <target.entity>
Nuclear receptor subfamily 1 group I member 2 (Homo sapiens) (UniProt O75469)

>  <cat>
inactive

$$$$
>  <compound>
CCC(=O)O[C@]1(c2ccccc2)CCN(C)C[C@H]1C

>  <target.entity>
Nuclear receptor subfamily 1 group I member 2 (Homo sapiens) (UniProt O75469)

>  <cat>
inactive

$$$$

----------
# target.entity: Cytochrome P450 3A4 (Homo sapiens) (UniProt P08684)
# Sequence (P08684 whole entry, looked up): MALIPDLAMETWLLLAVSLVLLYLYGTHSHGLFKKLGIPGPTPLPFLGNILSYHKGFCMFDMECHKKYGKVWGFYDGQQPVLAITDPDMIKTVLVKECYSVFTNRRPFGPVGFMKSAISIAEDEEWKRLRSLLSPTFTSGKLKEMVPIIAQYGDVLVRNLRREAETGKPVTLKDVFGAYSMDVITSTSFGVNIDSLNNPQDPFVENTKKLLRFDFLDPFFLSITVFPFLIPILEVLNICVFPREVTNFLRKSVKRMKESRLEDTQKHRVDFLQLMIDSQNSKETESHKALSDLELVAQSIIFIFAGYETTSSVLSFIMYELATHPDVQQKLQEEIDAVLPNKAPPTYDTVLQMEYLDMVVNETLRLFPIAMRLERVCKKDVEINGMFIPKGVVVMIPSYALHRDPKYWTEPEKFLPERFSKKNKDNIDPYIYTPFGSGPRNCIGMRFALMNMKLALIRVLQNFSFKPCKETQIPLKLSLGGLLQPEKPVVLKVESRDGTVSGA
# assay: Cytochrome P450 Family 3 Subfamily A Member 4 (CYP3A4) small molecule antagonists: luciferase reporter qHTS assay (AID 1671201); also: nearly all actives have a fitted effect of over 50% in size
# condition.context: P450-Glo CYP3A4 enzyme, luciferin luminescence, 1 h; series mostly up to 115 µM
Inconclusive results are not listed. Activity calls are given as the source filed them. Calls come from the whole dose curve; as a rule, active = well fitted inhibition curve with a large enough effect in the repeat runs; inconclusive = weak or mixed curves; inactive = no such curve, though single readings can be large or run the other way.
Labels: 1.0 (active), 0.0 (inactive)

>  <molecule>
O=[N+]([O-])c1c(Cl)c(Cl)cc(Cl)c1Cl

>  <cat>
0.0

$$$$
>  <molecule>
Cc1cc(C)c(C(=O)P(=O)(c2ccccc2)c2ccccc2)c(C)c1

>  <cat>
1.0

$$$$
>  <molecule>
Clc1ccccc1-c1ccccc1Cl

>  <cat>
0.0

$$$$
>  <molecule>
CCN(CC)C(=O)Cl

>  <cat>
0.0

$$$$
>  <molecule>
N#Cc1cc([N+](=O)[O-])ccc1N

>  <cat>
0.0

$$$$
>  <molecule>
Cc1cc(C(C)(C)c2ccc(O)c(C)c2)ccc1O

>  <cat>
1.0

$$$$
>  <molecule>
O=S(=O)(C(Cl)(Cl)Cl)C(Cl)(Cl)Cl

>  <cat>
1.0

$$$$
>  <molecule>
COc1ccc(C(c2ccc(OC)cc2)C(Cl)(Cl)Cl)cc1

>  <cat>
0.0

$$$$
>  <molecule>
OC(Cc1ccccc1Cl)(Cn1[nH]cnc1=S)C1(Cl)CC1 (centres undefined)

>  <cat>
1.0

$$$$

----------
# assay: qHTS assay to identify small molecule agonists of the estrogen receptor beta (ER-beta) signaling pathway - cell viability counter screen (AID 1259380); also: nearly all actives have a fitted effect of over 30% in size
# condition.context: ER-beta-bla HEK293T viability, CellTiter-Glo luminescence, 16 h; series mostly up to 92.4 µM
Results filed as inconclusive are left out. The source made the active and inactive calls. Calls come from the whole dose curve; as a rule, active = well fitted cell-killing curve with a large enough effect in the repeat runs; inconclusive = weak or mixed curves, or effect the other way; inactive = flat fitted curve, though single readings scatter.
Labels: T = active, F = inactive

>  <compound>
Cc1ccc(N(SC(F)(Cl)Cl)S(=O)(=O)N(C)C)cc1

>  <cat>
T

$$$$
>  <compound>
O=S(=O)(C(Cl)(Cl)Cl)C(Cl)(Cl)Cl

>  <cat>
T

$$$$
>  <compound>
N#Cc1cc([N+](=O)[O-])ccc1N

>  <cat>
F

$$$$
>  <compound>
Nc1ccc([N+](=O)[O-])cc1

>  <cat>
T

$$$$
>  <compound>
Cc1nnc2n1-c1sc(CCc3ccc(CC(C)C)cc3)cc1C(c1ccccc1Cl)=NC2C (stereo unspecified)

>  <cat>
T

$$$$
>  <compound>
OCC(c1ccc(Cl)cc1)c1ccc(Cl)cc1

>  <cat>
T

$$$$

----------
# assay: qHTS assay to identify small molecule agonists of the AP-1 signaling pathway - cell viability counter screen (AID 1159525); also: nearly all actives have a fitted effect of over 55% in size
# condition.context: ME-180 (cervical carcinoma) AP-1-bla cells viability, ATP luminescence, 5 h; series mostly up to 76.8 µM
Results filed as inconclusive are left out. Calls of active or inactive are those of the source. Calls come from the whole dose curve.
Labels: true (active), false (inactive)

>  <molecule>
c1ccc2c(c1)Sc1ccccc1N2CC1CN2CCC1CC2 (stereo not drawn)

>  <cat>
false

$$$$
>  <molecule>
Nc1ccc([N+](=O)[O-])cc1

>  <cat>
true

$$$$
>  <molecule>
OCC(c1ccc(Cl)cc1)c1ccc(Cl)cc1

>  <cat>
true

$$$$
>  <molecule>
Cc1cc(C)c(C(=O)P(=O)(c2ccccc2)c2ccccc2)c(C)c1

>  <cat>
true

$$$$
>  <molecule>
Cc1nnc2n1-c1sc(CCc3ccc(CC(C)C)cc3)cc1C(c1ccccc1Cl)=NC2C (stereo not drawn)

>  <cat>
true

$$$$
>  <molecule>
Oc1c(I)cc(I)cc1I

>  <cat>
false

$$$$
>  <molecule>
CC(c1ccccc1)(c1ccc(O)cc1)c1ccc(O)cc1

>  <cat>
true

$$$$
>  <molecule>
N#Cc1cc([N+](=O)[O-])ccc1N

>  <cat>
false

$$$$

----------
# assay: qHTS assay for identifying genotoxic compounds that show differential cytotoxicity against isogenic chicken DT40 cell lines with known DNA damage response pathways - Rad54/Ku70 mutant cell line (AID 743015); also: nearly all actives have a fitted effect of over 60% in size; also: potency is read from the fitted curve at half-maximal effect
# condition.context: DT40 Rad54/Ku70 mutant viability, CellTiter-Glo, 40 h; series mostly up to 66.8 µM
Inconclusive results are not listed. Active and inactive are the calls of the source. Calls follow the shape of the dose curve; as a rule, active = well fitted cell-killing curve with a large enough effect in the repeat runs; inconclusive = weak or mixed curves; inactive = no such curve, though single readings can be large or run the other way.
observation.type: Potency

>  <compound>
COc1ccc2c3c1O[C@H]1C(=O)CC[C@H]4[C@@H](C2)N(C)CC[C@]314

>  <observation.type>
Potency

>  <assay.value>
inactive

$$$$
>  <compound>
O=C1C=C2C=C[C@@H]3C[C@@]2(O1)[C@H]1CCCCN31

>  <observation.type>
Potency

>  <assay.value>
5.96 µM (active)

$$$$
>  <compound>
O=c1ccc2cc(O[C@@H]3O[C@H](CO)[C@@H](O)[C@H](O)[C@H]3O)c(O)cc2o1

>  <observation.type>
Potency

>  <assay.value>
inactive

$$$$
>  <compound>
O=C1CCO1

>  <observation.type>
Potency

>  <assay.value>
inactive

$$$$
>  <compound>
O=C1C[C@@H]2OCC=C3CN4CC[C@]56c7ccccc7N1[C@H]5[C@H]2[C@H]3C[C@H]46 (tested in a mixture with another compound)

>  <observation.type>
Potency

>  <assay.value>
inactive

$$$$
>  <compound>
COC1=CC=C2[C@H]3Cc4ccc(OC)c5c4[C@@]2(CCN3C)[C@H]1O5

>  <observation.type>
Potency

>  <assay.value>
inactive

$$$$
>  <compound>
Clc1ccccc1-c1ccccc1Cl

>  <observation.type>
Potency

>  <assay.value>
inactive

$$$$
>  <compound>
O=C1CN(O)C(c2ccccc2)=c2cc(Cl)ccc2=N1

>  <observation.type>
Potency

>  <assay.value>
inactive

$$$$
>  <compound>
O=C1C(I)=CC(=C(c2cc(I)c(O)c(I)c2)c2ccccc2C(=O)O)C=C1I

>  <observation.type>
Potency

>  <assay.value>
inactive

$$$$
>  <compound>
CC(C)NC(C)Cc1ccc(I)cc1 (stereo not drawn)

>  <observation.type>
Potency

>  <assay.value>
13.3 µM (active)

$$$$
>  <compound>
CC(=O)OCC(=O)[C@H]1CC[C@H]2[C@@H]3CC[C@H]4C[C@H](O)CC[C@]4(C)[C@H]3C(=O)C[C@]12C

>  <observation.type>
Potency

>  <assay.value>
inactive

$$$$
>  <compound>
COC([CH2][Hg])CNC(=O)c1ccccc1OCC(=O)O (stereo not drawn)

>  <observation.type>
Potency

>  <assay.value>
2.98 µM (active)

$$$$
>  <compound>
OC[C@@H](O)[C@H]1O[C@@H]2O[C@@H](C(Cl)(Cl)Cl)O[C@@H]2[C@H]1O

>  <observation.type>
Potency

>  <assay.value>
inactive

$$$$

----------
# Test system: estrogen-related receptor alpha (ERRalpha) with PGC-1alpha coactivator, human
# assay: qHTS assay to identify small molecule antagonists of the estrogen related receptor signaling pathway with the pleiotropic PPARgamma coactivator (PGC) (AID 1224821); also: nearly all actives have a fitted effect of over 50% in size
# condition.context: ERR/PGC reporter cell line, luciferase, antagonist mode; series mostly up to 46.1 µM
Records with an inconclusive call do not appear. The source made the active and inactive calls. Calls come from the whole dose curve.
Labels: active, inactive

>  <compound>
C[C@@H](N)Cc1cnc[nH]1

>  <cat>
inactive

$$$$
>  <compound>
C[C@H](Cc1ccc2c(c1)OC(C(=O)O)(C(=O)O)O2)NC[C@H](O)c1cccc(Cl)c1

>  <cat>
inactive

$$$$
>  <compound>
CC(C)(C)OC(=O)NC1[C@H]2CNC[C@@H]12 (stereo not given in full)

>  <cat>
active

$$$$
>  <compound>
CCCN1CC[C@@H]2c3cc(O)ccc3CC[C@@H]21

>  <cat>
inactive

$$$$
>  <compound>
CN1CCC[C@@H]1Cc1c[nH]c2ccc(Nc3ncccc3[N+](=O)[O-])cc12

>  <cat>
inactive

$$$$
